Target: SARS-CoV-2 spike protein on pseudotyped lentivirus (Wuhan Reference Pseudovirus) (SARS-CoV-2, UniProt P0DTC2 14-1273)
Assay: cell-based or functional assay
Friendly reminder: Pseudovirus neutralization IC50 below 30 nM is yes (1), at or above is no (0).

Example results:
>  <Binder>
PP1159 MPB-scTRP-PAPA-R5a-B7-H6 (VHH, Form: Trimer) VHH: QVQLVESGGGLVQPGGSLRLSCAASGAFFSYGAIHWFRQAPGKQREEVAAITSGGSTGYADSVKGRFTISRDNAKNTVYLQMNSLKPEDTAVYYCNAGVVWLPSNAAYNLWGQGTQVTVSS

>  <Class>
no (0)

$$$$
>  <Binder>
PP1158 MPB-scTRP-PAPA-R2d-D3-H6 (VHH, Form: Trimer) VHH: QVQLVESGGGLVQPGGSLRLSCAASGHIFSINNAAWVRQAPGKSREGVATIHSGGGTYYSDSVKGRFTISRDNAKNTVYLQMNSLKPEDTAVYYCNAEVSTGAGSRGRVSDVYWGQGTQVTVSS

>  <Class>
yes (1)

$$$$
>  <Binder>
PP908 MBP-5HVZ-S2a-C4-H6 (VHH, Form: Dimer) VHH: QVQLVESGGGLVQPGGSLRLSCAASGFSESINATAWFRQAPGKQREGVAGLDGGGSDYYSDSVKGRFTISRDNAKNTVYLQMNSLKPEDTAVYYCAAQLTSSFRGYDFTPSNYDYWGQGTQVTVSS

>  <Class>
no (0)

$$$$
>  <Binder>
PP1146 MBP-5HVZ-PAPA-R2d-D3-H6 (VHH, Form: Dimer) VHH: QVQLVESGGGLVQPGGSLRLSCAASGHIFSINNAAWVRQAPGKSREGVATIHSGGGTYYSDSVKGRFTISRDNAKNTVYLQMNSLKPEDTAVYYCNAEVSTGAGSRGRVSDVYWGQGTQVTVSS

>  <Class>
no (0)

$$$$

Incoming: Take the binder PP1140 MBP-4B0F-PAPA-R5d-B6-H6 (VHH, Form: Heptamer) VHH: QVQLVESGGGLVQPGGSLRLSCAASGRILAANIVHWYRQAPGKEREGVAGITSGGGSYYADSVKGRFTISRDNAKNTVYLQMNSLKPEDTAVYYCNALGLGQSSLYRSADPYDSWGQGTQVTVSS and say whether its Pseudovirus neutralization IC50 is less than 30 nM.
Outgoing: yes (1)

Incoming: PP1147 MBP-5HVZ-PAPA-R5a-B7-H6 (VHH, Form: Dimer) VHH: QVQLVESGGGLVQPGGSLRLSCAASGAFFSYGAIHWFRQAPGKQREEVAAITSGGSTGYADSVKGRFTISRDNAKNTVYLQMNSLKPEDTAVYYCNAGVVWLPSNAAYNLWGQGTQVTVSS , same question.
Outgoing: yes (1)

Incoming: And then PP1143 MBP-5HVZ-PAPA-R2b-D5-H6 (VHH, Form: Dimer) VHH: QVQLVESGGGLVQPGGSLRLSCAASGYADEINMVHWYRQAPGKGREFVAAIASGGSTFYADSVKGRFTISRDNAKNTVYLQMNSLKPEDTAVYYCAAIPRPSLSYAHDYAYWGQGTQVTVSS , what is it?
Outgoing: yes (1)

Incoming: Same read-out for PP899 MBP-5HVZ-R5a-B5-H6 (VHH, Form: Dimer) VHH: QVQLVESGGGLVQPGGSLRLSCAASGDDFIENAISWYRQAPGKGREWVAAVTLGGHSNYADSVKGRFTISRDNAKNTVYLQMNSLKPEDTAVYYCNYPVGIPAVAIDGRRSYGYWGQGTQVTVSS ?
Outgoing: yes (1)

Incoming: Consider next the binder PP903 MBP-5HVZ-R1i-A11-H6 (VHH, Form: Dimer) VHH: QVQLVESGGGLVQPGGSLRLSCAASGSILQINAIHWFRQAPGKQREEVAAITSGGSTGYADSVKGRFTISRDNAKNTVYLQMNSLKPEDTAVYYCAATSTRGGLDSDYWGQGTQVTVSS in the same way.
Outgoing: no (0)
